- method: Terminal half life in rhesus monkey at 1 mg/kg, iv measured over 24 hrs by LC/MS/MS analysis
- Type: ADME, organism-based, Macaca mulatta
- run-conditions: in vivo, read-out: beta t1/2 (converted)
assay-readout: half-life
Give the value; after it, write the unit.

So, N#Cc1c(N)nc(N)nc1N[C@H](c1nc2c(F)ccc(Cl)c2c(=O)n1-c1cccnc1)C1CC1 [GS-9901] ? Its half-life was 2.45 h

----------
- method: Volume of distribution at steady state in Beagle dog at 1 mg/kg, iv measured over 24 hrs by LC/MS/MS analysis
- Type: ADME, organism-based, Canis lupus familiaris
- run-conditions: in vivo, read-out: Vdss
assay-readout: Vd (L/kg)
Field format: number, assumed L/kg, no unit text.

So, N#Cc1c(N)nc(N)nc1N[C@H](c1nc2c(F)ccc(Cl)c2c(=O)n1-c1cccnc1)C1CC1 [GS-9901] ? Its Vd was 1.03

----------
- method: Oral bioavailability in Sprague-Dawley rat at 5 mg/kg measured over 24 hrs by LC/MS/MS analysis
- Type: ADME, organism-based
- run-conditions: in vivo
assay-readout: bioavailability (%)
Field format: number, assumed %, no unit text.

So, `N#Cc1c(N)nc(N)nc1N[C@H](c1nc2c(F)ccc(Cl)c2c(=O)n1-c1cccnc1)C1CC1` ? Its bioavailability was 57

----------
- method: Terminal half life in cynomolgus monkey at 1 mg/kg, iv measured over 24 hrs by LC/MS/MS analysis
- Format: ADME, organism-based, Macaca fascicularis
- run-conditions: in vivo, read-out: beta t1/2 (converted)
assay-readout: half-life (h)
Field format: number, assumed h, no unit text.

So, N#Cc1c(N)nc(N)nc1N[C@H](c1nc2c(F)ccc(Cl)c2c(=O)n1-c1cccnc1)C1CC1 [GS-9901] ? Its half-life was 2.89

----------
- method: Terminal half life in Sprague-Dawley rat at 1 mg/kg, iv measured over 24 hrs by LC/MS/MS analysis
- Assay type: ADME, organism-based
- run-conditions: in vivo, read-out: beta t1/2 (converted)
assay-readout: half-life (h)
Field format: number, assumed h, no unit text.

So, `N#Cc1c(N)nc(N)nc1N[C@H](c1nc2c(F)ccc(Cl)c2c(=O)n1-c1cccnc1)C1CC1` ? Its half-life was 2.04

----------
- method: Oral bioavailability in Beagle dog at 5 mg/kg measured over 24 hrs by LC/MS/MS analysis
- Assay type: ADME, organism-based, Canis lupus familiaris
- run-conditions: in vivo
assay-readout: bioavailability (%)
Field format: number, assumed %, no unit text.

So, `N#Cc1c(N)nc(N)nc1N[C@H](c1nc2c(F)ccc(Cl)c2c(=O)n1-c1cccnc1)C1CC1` ? Its bioavailability was 49

----------
- measured-target: PI3-kinase p110-alpha/p85-alpha (Homo sapiens, UniProt P42336)
- Sequence (P27986 whole entry): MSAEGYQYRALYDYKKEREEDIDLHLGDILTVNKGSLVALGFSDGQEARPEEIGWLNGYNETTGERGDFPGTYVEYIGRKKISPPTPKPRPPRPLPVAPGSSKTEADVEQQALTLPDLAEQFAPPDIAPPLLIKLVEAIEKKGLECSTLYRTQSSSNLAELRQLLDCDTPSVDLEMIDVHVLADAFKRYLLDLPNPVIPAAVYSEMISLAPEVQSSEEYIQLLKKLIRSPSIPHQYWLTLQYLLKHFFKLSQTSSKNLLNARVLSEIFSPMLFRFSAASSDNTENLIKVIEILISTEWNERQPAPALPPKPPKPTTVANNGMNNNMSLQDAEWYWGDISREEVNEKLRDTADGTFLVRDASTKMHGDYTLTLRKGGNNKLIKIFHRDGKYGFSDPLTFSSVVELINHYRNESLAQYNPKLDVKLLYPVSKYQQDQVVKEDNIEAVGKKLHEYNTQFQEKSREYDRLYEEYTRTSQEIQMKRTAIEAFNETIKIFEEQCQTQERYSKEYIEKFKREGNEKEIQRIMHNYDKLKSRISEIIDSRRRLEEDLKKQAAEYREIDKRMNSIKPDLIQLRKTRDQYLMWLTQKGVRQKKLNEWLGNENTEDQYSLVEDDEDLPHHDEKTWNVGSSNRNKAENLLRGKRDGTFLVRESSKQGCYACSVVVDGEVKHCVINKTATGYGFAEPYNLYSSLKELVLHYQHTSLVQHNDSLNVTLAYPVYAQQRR
- Sequence (P42336 whole entry): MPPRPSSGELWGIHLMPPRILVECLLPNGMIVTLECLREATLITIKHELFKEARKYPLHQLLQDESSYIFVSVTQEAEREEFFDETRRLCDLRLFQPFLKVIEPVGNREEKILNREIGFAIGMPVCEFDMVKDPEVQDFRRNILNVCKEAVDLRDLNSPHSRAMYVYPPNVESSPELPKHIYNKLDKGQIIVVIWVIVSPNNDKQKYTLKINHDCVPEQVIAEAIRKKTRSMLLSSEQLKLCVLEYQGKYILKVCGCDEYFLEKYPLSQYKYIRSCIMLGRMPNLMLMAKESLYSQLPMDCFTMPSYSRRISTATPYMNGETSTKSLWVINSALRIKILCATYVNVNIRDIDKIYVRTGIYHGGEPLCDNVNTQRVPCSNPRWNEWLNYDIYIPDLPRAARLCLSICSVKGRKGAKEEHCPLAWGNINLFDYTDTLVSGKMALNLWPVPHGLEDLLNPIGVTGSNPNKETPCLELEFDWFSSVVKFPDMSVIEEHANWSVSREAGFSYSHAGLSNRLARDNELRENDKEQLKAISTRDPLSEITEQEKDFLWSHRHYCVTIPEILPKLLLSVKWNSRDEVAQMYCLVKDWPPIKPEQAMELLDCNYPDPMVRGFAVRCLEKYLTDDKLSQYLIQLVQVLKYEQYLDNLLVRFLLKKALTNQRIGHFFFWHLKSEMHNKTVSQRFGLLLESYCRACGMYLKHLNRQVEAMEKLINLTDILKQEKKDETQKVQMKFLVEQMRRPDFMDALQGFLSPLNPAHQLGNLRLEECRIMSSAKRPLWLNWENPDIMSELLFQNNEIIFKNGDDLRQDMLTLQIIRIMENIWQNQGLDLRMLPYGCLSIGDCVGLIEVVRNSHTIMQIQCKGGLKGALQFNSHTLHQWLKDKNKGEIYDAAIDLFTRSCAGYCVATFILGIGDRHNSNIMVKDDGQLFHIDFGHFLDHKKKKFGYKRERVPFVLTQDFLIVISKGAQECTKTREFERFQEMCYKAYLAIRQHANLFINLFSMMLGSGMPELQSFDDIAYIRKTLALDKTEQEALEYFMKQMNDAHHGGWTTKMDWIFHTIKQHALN
- method: Inhibition of human full length PI3K p110alpha/p85alpha using […] as substrate measured after 30 mins by TR-FRET assay
assay-readout: pIC50
To interpret pIC50, take it as minus log10 of a concentration measured in moles per litre.

As a guide, the following entries are already answered.
In [3]: df
Out[3]:
                            chemical_string  assay_readout  observed_result
0  C[C@H](Nc1nc(N)nc(N)c1C#N)c1nc2cccc(Cl)c2c(=O)n1-c1cncc(C(F)(F)F)c1          pIC50             5.00
1  C[C@H](Nc1nc(N)nc(N)c1C#N)c1nc2c(Cl)cccc2c(=O)n1-c1cccnc1          pIC50             5.51
2  C[C@H](Nc1nc(N)nc(N)c1C#N)c1nc2cccc(Cl)c2c(=O)n1-c1cccnc1          pIC50             5.99
3  C[C@H](Nc1nc(N)nc(N)c1C#N)c1nc2c(F)ccc(Cl)c2c(=O)n1-c1cccnc1          pIC50             6.11

// moving on: another record for pIC50
So, `C[C@H](Nc1nc(N)nc(N)c1C#N)c1nc2cccc(Cl)c2c(=O)n1-c1cncc(Cl)c1` ? Its pIC50 was 5.08

----------
- method: Clearance in Sprague-Dawley rat at 1 mg/kg, iv measured over 24 hrs by LC/MS/MS analysis
- Type: ADME, organism-based
- run-conditions: in vivo
assay-readout: clearance (mL/min/kg)
Field format: number, assumed mL/min/kg, no unit text.

So, N#Cc1c(N)nc(N)nc1N[C@H](c1nc2c(F)ccc(Cl)c2c(=O)n1-c1cccnc1)C1CC1 [GS-9901] ? Its clearance was 7.17

----------
- measured-target: PI3-kinase p110-alpha/p85-alpha (Homo sapiens)
- method: Inhibition of human full length PI3K p110alpha/p85alpha using […] as substrate measured after 30 mins by TR-FRET assay
assay-readout: IC50 (µM)
Field format: number, assumed µM, no unit text.

>>> df
                                   molecule  assay_readout  observed_result
0  COc1cncc(-n2c([C@H](C)Nc3nc(N)nc(N)c3C#N)nc3cccc(Cl)c3c2=O)c1           IC50               10

Response field IC50 (PI3-kinase p110-alpha/p85-alpha (Homo sapiens)) for item Cc1c(F)cncc1-n1c([C@H](C)Nc2nc(N)nc(N)c2C#N)nc2cccc(Cl)c2c1=O (stereo in doubt; 28) : 10

Response field IC50 (PI3-kinase p110-alpha/p85-alpha (Homo sapiens)) for item `C[C@H](Nc1nc(N)nc(N)c1C#N)c1nc2cccc(Cl)c2c(=O)n1-c1ccccc1` : 0.24

Response field IC50 (PI3-kinase p110-alpha/p85-alpha (Homo sapiens)) for item N#Cc1c(N)nc(N)nc1N[C@H](c1nc2c(F)ccc(Cl)c2c(=O)n1-c1cccnc1)C1CC1 [GS-9901] : 0.75

Response field IC50 (PI3-kinase p110-alpha/p85-alpha (Homo sapiens)) for item `C[C@H](Nc1nc(N)nc(N)c1C#N)c1nc2cccc(Cl)c2c(=O)n1-c1cncc(F)c1` : 4.3

Response field IC50 (PI3-kinase p110-alpha/p85-alpha (Homo sapiens)) for item Cc1ncccc1-n1c([C@H](C)Nc2nc(N)nc(N)c2C#N)nc2cccc(Cl)c2c1=O (stereo in doubt; 23) : 1.6

Response field IC50 (PI3-kinase p110-alpha/p85-alpha (Homo sapiens)) for item `C[C@H](Nc1nc(N)nc(N)c1C#N)c1nc2cccc(Cl)c2c(=O)n1-c1cncc(C#N)c1` : 8.7

Response field IC50 (PI3-kinase p110-alpha/p85-alpha (Homo sapiens)) for item Cc1ncccc1-n1c([C@H](C)Nc2nc(N)nc(N)c2C#N)nc2cccc(Cl)c2c1=O (stereo in doubt; 24) : 6.8

----------
- method: Half life in cynomolgus monkey at 1 mg/kg, iv
- Assay type: ADME, organism-based, Macaca fascicularis
- run-conditions: in vivo
assay-readout: half-life (h)
Field format: number, assumed h, no unit text.

So, `C[C@H](Nc1nc(N)nc(N)c1C#N)c1nc2cccc(Cl)c2c(=O)n1-c1cccnc1` ? Its half-life was 4.9

----------
- measured-target: PI3-kinase p110-delta/p85-alpha (Homo sapiens)
- Sequence (P27986 whole entry): as the sequence (P27986 whole entry) above
- Sequence (O00329 whole entry): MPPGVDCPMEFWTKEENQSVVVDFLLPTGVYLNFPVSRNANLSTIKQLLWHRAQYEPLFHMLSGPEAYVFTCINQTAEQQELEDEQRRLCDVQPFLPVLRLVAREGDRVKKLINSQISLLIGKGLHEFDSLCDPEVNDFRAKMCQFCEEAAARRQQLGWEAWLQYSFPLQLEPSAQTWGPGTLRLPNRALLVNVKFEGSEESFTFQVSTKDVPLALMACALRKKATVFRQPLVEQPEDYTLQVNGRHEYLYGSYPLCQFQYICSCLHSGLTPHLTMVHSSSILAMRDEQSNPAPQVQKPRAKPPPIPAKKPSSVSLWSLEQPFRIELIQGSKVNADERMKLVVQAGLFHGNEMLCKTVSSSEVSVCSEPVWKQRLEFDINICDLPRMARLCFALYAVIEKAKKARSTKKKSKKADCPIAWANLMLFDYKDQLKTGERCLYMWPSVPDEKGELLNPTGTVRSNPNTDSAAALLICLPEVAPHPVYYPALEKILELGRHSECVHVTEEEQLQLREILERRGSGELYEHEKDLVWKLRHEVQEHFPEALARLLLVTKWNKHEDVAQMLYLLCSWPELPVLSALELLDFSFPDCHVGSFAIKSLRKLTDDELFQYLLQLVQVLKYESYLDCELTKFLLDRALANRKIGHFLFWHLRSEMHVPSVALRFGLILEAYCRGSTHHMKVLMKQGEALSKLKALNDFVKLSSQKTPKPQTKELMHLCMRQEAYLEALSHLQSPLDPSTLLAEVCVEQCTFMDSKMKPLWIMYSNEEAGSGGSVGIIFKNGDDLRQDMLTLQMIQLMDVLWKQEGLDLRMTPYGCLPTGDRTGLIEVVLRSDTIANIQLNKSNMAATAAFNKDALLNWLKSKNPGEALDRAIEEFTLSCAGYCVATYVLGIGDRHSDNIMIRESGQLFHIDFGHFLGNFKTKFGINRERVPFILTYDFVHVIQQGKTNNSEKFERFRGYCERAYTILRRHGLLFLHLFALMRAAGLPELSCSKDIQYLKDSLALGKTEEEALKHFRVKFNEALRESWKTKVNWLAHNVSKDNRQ
- method: Inhibition of human full length PI3K p110delta/p85alpha using […] as substrate measured after 30 mins by TR-FRET assay
pIC50: −log10 of the molar value.
Kind request: treat 9 as inclusive, so pIC50 at 9 or higher is Yes, anything lower is No.

Field: example entries. Status: answers known.
>>> df
                                   compound  assigned_class
0  Cc1c(F)cncc1-n1c([C@H](C)Nc2nc(N)nc(N)c2C#N)nc2cccc(Cl)c2c1=O (stereo in doubt; 28)              No
1  C[C@H](Nc1nc(N)nc(N)c1C#N)c1nc2cccc(Cl)c2c(=O)n1-c1cncc(C(F)(F)F)c1              No
2  C[C@H](Nc1nc(N)nc(N)c1C#N)c1nc2cccc(Cl)c2c(=O)n1-c1cncc(C#N)c1              No

Q: Please indicate if the recorded pIC50 for `CC[C@H](Nc1nc(N)nc(N)c1C#N)c1nc2c(F)ccc(Cl)c2c(=O)n1-c1cccnc1` meets or exceeds 9.
Ans: No

Q: Please indicate if the recorded pIC50 for Cc1c(F)cncc1-n1c([C@H](C)Nc2nc(N)nc(N)c2C#N)nc2cccc(Cl)c2c1=O (stereo in doubt; 27) meets or exceeds 9.
Ans: Yes

----------
- method: Clearance in rat at 1 mg/kg, iv
- Format: ADME, organism-based
- run-conditions: in vivo
Measured clearance, listed per entry for reference.
Field format: number, assumed mL/min/kg, no unit text.

As a guide, the following entries are already answered.
                            chemical_string  assay_readout  reading_unit  observed_result
0  C[C@H](Nc1nc(N)nc(N)c1C#N)c1nc2cccc(Cl)c2c(=O)n1-c1cccnc1      clearance     mL/min/kg               25
1  C[C@H](Nc1nc(N)nc(N)c1C#N)c1nc2c(F)ccc(Cl)c2c(=O)n1-c1cccnc1      clearance     mL/min/kg             26.7
2  C[C@H](Nc1nc(N)nc(N)c1C#N)c1nc2c(F)ccc(Cl)c2c(=O)n1-c1cncc(F)c1      clearance     mL/min/kg             17.7

So, `CC[C@H](Nc1nc(N)nc(N)c1C#N)c1nc2c(F)ccc(Cl)c2c(=O)n1-c1cccnc1` ? Its clearance was 5

So, `N#Cc1c(N)nc(N)nc1N[C@H](c1nc2c(F)ccc(Cl)c2c(=O)n1-c1cccnc1)C1CC1` ? Its clearance was 7.17
